system: T. gondii proliferation (RH-YFP2 parasites in HFF); assay: High Content Imaging (HCI) assay of T. gondii proliferation in HFF; conditions: Toxoplasma gondii, 72 h, read-out: IC50 of pyrimethamine, reproducibility
pIC50: −log10 of the molar value.
TEST_READOUT: pIC50

>>> numeric_value("CCc1nc(N)nc(N)c1-c1ccc(Cl)cc1 [pyrimethamine, reference compound]")
6.36
